Hi there, I'd appreciate the recorded composite z-score for every entry that follows.
- Test system: Fibrinogen (Alexa647-labelled)
- METHOD DESCRIPTION: fibrinogen binders on compound microarrays, profiling panel, artefact control for SMM control-protein annotation, biochemical, small-molecule microarray, 635/667 nm fluorescence (AID 1131);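 further: z-score merges 667 nm fluorescence with per-spot signal-to-noise over triplicate slides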
- CONDITIONS: fibrinogen-A647 binding fluorescence, higher = more signal
One number for each entry.

Solved cases (3 shown):
COMPOUND: CCOC(=O)C1=CC[C@@H](c2ccc([N+](=O)[O-])cc2)N(S(=O)(=O)c2ccc(C)cc2)[C@H]1c1ccccc1
composite z-score: 0.979
--
COMPOUND: [N-]=[N+]=NCc1ccccc1C[C@@]1(C(=O)NCCN2CCOCC2)N=C(c2ccc(OCCCO)cc2)O[C@@H]1c1ccccc1N=[N+]=[N-]
composite z-score: 0.957
--
COMPOUND: COc1cc2c(cc1OC)CN(C(=O)[C@H]1[C@@H]3C(=O)O[C@@H](c4ccccc4)[C@@H](c4ccccc4)N3[C@@H](c3ccc(OCCO)cc3)[C@]13C(=O)Nc1ccc(C#CCCO)cc13)CC2
composite z-score: 0.939

Please give composite z-score for each item listed below.
1. C=CCNC(=O)[C@H]1[C@@H]2C(=O)O[C@@H](c3ccccc3)[C@@H](c3ccccc3)N2[C@@H](c2ccccc2OCCO)[C@]12C(=O)N(C(=O)OCCOC)c1ccc(C#CC3=CCCCC3)cc12
2. CN(C)C(=O)[C@@]1(Cc2ccccc2N=[N+]=[N-])COC(c2ccc(OCCCO)cc2)=N1
3. COCCCNC(=O)[C@@H]1c2ccccc2C(=O)N(Cc2ccccc2C(F)(F)F)[C@H]1c1ccc(CO)cc1
4. CC(C)CNC(=O)[C@@H]1c2ccccc2C(=O)N(Cc2cc(F)cc(C(F)(F)F)c2)[C@H]1c1ccc(CO)cc1
5. O=c1cccc(-c2cccc(Cl)c2)o1

output:
0.975
1
-0.873
0.626
0.2

// for each compound in input: emit composite z-score
1. NC(=O)N1C(=O)C2C(C1=O)C1C=C(c3ccc(CO)cc3)C2C(C2CC2)N1Cc1sc2ccccc2c1Cl (stereo not given)
2. [N-]=[N+]=NCc1ccccc1C[C@@]1(C(N)=O)N=C(c2ccc(OCCCO)cc2)O[C@@H]1c1ccccc1CN=[N+]=[N-]
3. CC(C)(C)OC(=O)CC[C@]1(C(=O)NCCN2CCOCC2)N=C(c2ccc(OCCCO)cc2)O[C@H]1c1ccccc1N=[N+]=[N-]
4. CC(C)C[C@@H]1NC(=O)[C@H]2C[C@@H](C(=O)NCCCCCC[N+](C)(C)C)[C@@H](c3cccc(OCCO)c3)N2C1=O

output:
1. 0.985
2. 0.761
3. 1.04
4. -1.08

Count: 3. Required value per item: composite z-score.
1. NC(=O)N1C(=O)C2C(C1=O)C1C=C(CCCO)C2C(c2cccs2)N1Cc1cc2c(cc1Br)OCO2 (stereo not given)
2. C[C@@H]1ON(c2ccc(C(=O)OC(C)(C)C)cc2)[C@H](c2ccc(Br)cc2)[C@H]1C(=O)N1C(=O)OC[C@H]1Cc1ccccc1
3. COc1ccc([Si](C)(C)[C@H]2[C@H](CC(=O)N3Cc4ccccc4C[C@H]3CO)O[C@@]3(C(=O)N(Cc4cccc(N5CCCCC5=O)c4)c4ccccc43)[C@@H]2C)cc1

output:
[0.87, 0.97, 0.378]

The measured values listed here are drawn from PubChem BioAssay.
